- systemUnderTest: hα7-wt nAChR-expressing GH4Cl cells (Homo sapiens, UniProt P36544)
- Construct: expressed in transfected cells
- assay: Patch-clamp current recording (whole-cell), potentiation of choline 1 mM response, PAM type
- Assay type: cell-based
- setupConditions: according to Ex. D.2; "<5" = no top plateau reached at maximal concentration; read-out: Potency (pEC50) (converted)
measuredAttribute: EC50 (nM)

1. CC[C@H](O)Cc1nc(Nc2cc(F)cc(OC)c2)nn1-c1ccnc(C)c1 [E186]
2. CC[C@H](O)Cc1nc(Nc2cccc(Cl)c2)nn1-c1cc(C)nc(C)c1 [E129]
3. CNC(=O)Cc1nc(Nc2cc(Cl)cc(OC)c2)nn1-c1cc(C)nc(C)c1 [E216]
4. Cc1cc(-n2nc(Nc3ccc(F)c(C(F)(F)F)c3)nc2CC(=O)NC2CCC2)cc(C)n1 [E225]
Order all 4 entries above by recorded EC50, highest first, lowest last. Answer by naming the labels in the order asked. 1, 3, 2, 4

###

- systemUnderTest: hα7-wt nAChR-expressing cells (Homo sapiens, UniProt P36544)
- Construct: expressed in transfected cells; host or cells: hα7-wt nAChR-expressing cells
- Sequence (P36544 23-502): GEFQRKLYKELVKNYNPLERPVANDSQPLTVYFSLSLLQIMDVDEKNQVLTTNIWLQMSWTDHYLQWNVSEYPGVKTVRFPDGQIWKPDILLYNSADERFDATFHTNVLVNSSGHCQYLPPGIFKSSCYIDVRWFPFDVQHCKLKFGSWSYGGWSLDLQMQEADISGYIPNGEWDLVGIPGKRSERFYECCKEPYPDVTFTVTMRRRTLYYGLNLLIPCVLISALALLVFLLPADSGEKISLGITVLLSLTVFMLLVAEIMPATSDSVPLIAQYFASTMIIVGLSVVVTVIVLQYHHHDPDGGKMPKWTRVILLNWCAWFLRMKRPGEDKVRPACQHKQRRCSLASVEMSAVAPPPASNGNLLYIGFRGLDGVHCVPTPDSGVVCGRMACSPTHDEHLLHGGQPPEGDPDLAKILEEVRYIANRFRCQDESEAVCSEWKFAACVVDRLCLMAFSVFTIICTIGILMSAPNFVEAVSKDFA
- assay: Ca2+ flux imaging (FDSS) (Protocol B), PAM activity with choline 100 μM
- Assay type: cell-based
- setupConditions: according to Ex. D.1b; read-out: % Efficacy
measuredAttribute: Emax (%)

Use the examples below as a reference point.
>>> experimentalvalue("Cc1cc(-n2nc(Nc3cc(F)cc(C(F)(F)F)c3)nc2CC(=O)NC2CCC2)cc(C)n1")
662
>>> experimentalvalue("CCNC(=O)Cc1nc(Nc2cc(F)cc(C(F)(F)F)c2)nn1-c1cc(C)nc(C)c1")
930
>>> experimentalvalue("COc1cc(Nc2nc(CC(=O)NC3CCC3)n(-c3cc(C)nc(C)c3)n2)cc(C(F)(F)F)c1")
701
>>> experimentalvalue("CCNC(=O)Cc1nc(Nc2cc(Cl)cc(OC)c2)nn1-c1cc(C)nc(C)c1")
702
>>> experimentalvalue("Cc1cc(-n2nc(Nc3cc(F)cc(C(F)(F)F)c3)nc2CC(=O)NC2CC2)cc(C)n1")
950

1. CNC(=O)CCc1nc(Nc2ccc(F)c(F)c2)nn1-c1cccc(Cl)c1
2. Cc1nccc(-n2nc(Nc3cccc(Cl)c3F)nc2CC(=O)NC2CCC2)c1C
Task for the reader: decide whether 1 or 2 has the larger Emax. Output the label that corresponds to your choice. 1

P. COc1ccc(Nc2nc(CC(=O)NC3CC3)n(-c3cc(C)nc(C)c3)n2)cc1C(F)(F)F
Q. C[C@H](O)Cc1nc(Nc2ccc(F)c(F)c2)nn1-c1ccc(F)cc1
Task for the reader: decide whether P or Q has the larger Emax. Output the label that corresponds to your choice. P

###

- systemUnderTest: hα7-wt nAChR-expressing GH4Cl cells (Homo sapiens)
- Construct: expressed in transfected cells
- assay: Patch-clamp current recording (whole-cell), potentiation of choline 1 mM response, PAM type
- Assay type: cell-based
- setupConditions: according to Ex. D.2; "<5" = no top plateau reached at maximal concentration; read-out: Potency (pEC50) (converted)
measuredAttribute: EC50 (nM)

1. Cc1cc(-n2nc(Nc3cc(F)cc(F)c3)nc2CC(=O)NC2CC2)cc(C)n1
2. COc1cc(Cl)cc(Nc2nc(CC(=O)NC3CCC3)n(-c3cc(C)nc(C)c3)n2)c1
3. CC[C@H](O)Cc1nc(Nc2cc(F)cc(OC)c2)nn1-c1cc(C)nc(C)c1
Order all 3 entries above by recorded EC50, highest first, lowest last. Answer by naming the labels in the order asked. 1, 3, 2

I. Cc1cc(-n2nc(Nc3ccc(F)c(F)c3)nc2CC(=O)NCC2CC2)cc(C)n1
II. Cc1cc(-n2nc(Nc3cc(F)cc(Cl)c3)nc2CC(=O)NC2CC2)cc(C)n1
From the items above, decide which of I and II has the lower EC50 reading. Output the label that corresponds to your choice. II

a. CN(C)C(=O)CCc1nc(Nc2ccc(F)c(C(F)(F)F)c2)nn1-c1cccnc1
b. Cc1cc(-n2nc(Nc3cccc(Cl)c3F)nc2CCC(=O)N(C)C)cc(C)n1
c. COc1ccc(Nc2nc(CC(=O)NC3CCC3)n(-c3cc(C)nc(C)c3)n2)cc1C(F)(F)F
Hey, quick one: sort these by EC50, low to high? Answer by naming the labels in the order asked. b, c, a
(b: 37.2 nM, c: 120 nM, a: 339 nM)

P. CNC(=O)Cc1nc(Nc2ccc(OC)c(C(F)(F)F)c2)nn1-c1cc(C)nc(C)c1
Q. CCOC(=O)CCc1nc(Nc2cccc(OC(F)(F)F)c2)nn1-c1cccnc1
From the items above, decide which of P and Q has the lower EC50 reading. Output the label that corresponds to your choice. P
